# Experiment summary: Kinetic solubility of the compound in PBS buffer at pH 7.4 after 2 hrs at 37 deg C by turbidimetric analysis
# Type: physicochemical
# Measurement conditions: read-out: Kinetic_solubility
Reported property: solubility kinetic at 2 h (µM)

Past entries and their recorded results:
CCNS(=O)(=O)c1ccc(NC2C3CC4CC(C3)CC2C4)c(NCc2ccncc2)c1 (stereo unspecified) : 12.5
CCNS(=O)(=O)c1ccc(NC2C3CC4CC(C3)CC2C4)c(NCc2ccccc2)c1 (stereo unspecified) : 12.5
CCNS(=O)(=O)c1ccc(NC2CCCCC2)c(N)c1 : 12.5

[A] CCNS(=O)(=O)c1ccc(NC2CCCCC2)c(NCc2ccccc2)c1
[B] CCNC(=O)c1ccc(NC2C3CC4CC(C3)CC2C4)c(NCc2ccncc2)c1 (stereo unspecified)
Prompt line: Lower value for measured solubility kinetic at 2 h? Options: A , B Indicate your choice by writing its label.
Response line: A

---

# Experiment summary: Half life in mouse liver microsomes by LC/MS/MS analysis
# Type: ADME
Reported property: half-life (min)

Past entries and their recorded results:
CCNS(=O)(=O)c1ccc(NC2CCCCC2)c(NCc2ccccc2)c1 : 187
CCNS(=O)(=O)c1ccc(NC2C3CC4CC(C3)CC2C4)c(NCc2ccncc2)c1 (stereo unspecified) : 26

[A] CCNS(=O)(=O)c1ccc(NC2CCCCC2)c(N)c1
[B] CCOC(=O)c1ccc(NC2CCCCC2)c(N)c1
Prompt line: Recorded half-life values differ for A and B ; which one is higher? Indicate your choice by writing its label.
Response line: A
(A: 31 min, B: 1.9 min)

---

# Experiment summary: Stability in human plasma assessed as percentage recovery after 6 hrs by LC/MS/MS analysis
# Assay type: ADME, cell-free
# Measurement conditions: read-out: Drug recovery
Reported property: remaining at 6 h (%)

CCNC(=O)c1ccc(NC2C3CC4CC(C3)CC2C4)c(NCc2ccncc2)c1 (stereo unspecified) : 100
CCNS(=O)(=O)c1ccc(NC2C3CC4CC(C3)CC2C4)c(NCc2ccncc2)c1 (stereo unspecified) : 100
CCNS(=O)(=O)c1ccc(NC2CCCCC2)c(NCc2ccccc2)c1 : 100
CCOC(=O)c1ccc(NC2CCCCC2)c(N)c1 : 100
CCNS(=O)(=O)c1ccc(NC2CCCCC2)c(N)c1 : 81.9
CCNS(=O)(=O)c1ccc(NC2C3CC4CC(C3)CC2C4)c(NCc2ccccc2)c1 (stereo unspecified) : 100

---

# Experiment summary: Half life in human liver microsomes by LC/MS/MS analysis
# Assay type: ADME
Reported property: half-life (min)

Past entries and their recorded results:
CCNC(=O)c1ccc(NC2C3CC4CC(C3)CC2C4)c(NCc2ccncc2)c1 (stereo unspecified) : 16
CCOC(=O)c1ccc(NC2CCCCC2)c(N)c1 : 6.9
CCNS(=O)(=O)c1ccc(NC2C3CC4CC(C3)CC2C4)c(NCc2ccccc2)c1 (stereo unspecified) : 36
CCNS(=O)(=O)c1ccc(NC2C3CC4CC(C3)CC2C4)c(NCc2ccncc2)c1 (stereo unspecified) : 64

[a] CCNS(=O)(=O)c1ccc(NC2CCCCC2)c(N)c1
[b] CCNS(=O)(=O)c1ccc(NC2CCCCC2)c(NCc2ccccc2)c1
Prompt line: Lower value for measured half-life? Options: a , b Indicate your choice by writing its label.
Response line: a
(a: 37 min, b: 88 min)

---

# Experiment summary: Stability in mouse plasma assessed as percentage recovery after 6 hrs by LC/MS/MS analysis
# Assay type: ADME, cell-free
# Measurement conditions: read-out: Drug recovery
Reported property: remaining at 6 h (%)

Past entries and their recorded results:
CCNS(=O)(=O)c1ccc(NC2CCCCC2)c(NCc2ccccc2)c1 : 98.6
CCNS(=O)(=O)c1ccc(NC2CCCCC2)c(N)c1 : 86.2
CCNS(=O)(=O)c1ccc(NC2C3CC4CC(C3)CC2C4)c(NCc2ccccc2)c1 (stereo unspecified) : 99.4
CCNS(=O)(=O)c1ccc(NC2C3CC4CC(C3)CC2C4)c(NCc2ccncc2)c1 (stereo unspecified) : 100

[P] CCNC(=O)c1ccc(NC2C3CC4CC(C3)CC2C4)c(NCc2ccncc2)c1 (stereo unspecified)
[Q] CCOC(=O)c1ccc(NC2CCCCC2)c(N)c1
Prompt line: Lower value for measured remaining at 6 h? Options: P , Q Indicate your choice by writing its label.
Response line: Q
(Q: 0%, P: 100%)
